FYI, the data here is from paper PMC11477000.

system.name: HSA (Homo sapiens)
Construct: purchased Sigma-Aldrich
assay.overview: UV titration (Benesi–Hildebrand) with HSA
Assay type: binding
protocol.conditions: n = 3, 1 μM HSA, pH 7.4 phosphate buffer, 24 °C, 278 nm, read-out: logKHSA ± Stdev. (logarithm of stability constant) (converted)
Response field label takes class 1 when Kd is strictly below 50 µM and class 0 in all other cases.

As a guide, the following entries are already answered.
In [3]: df
Out[3]:
                                   compound    group
0  COc1ccc2[nH]c([S@+]([O-])Cc3ncc(C)c(OC)c3C)nc2c1 [R-omeprazole]  class 1
1  Cc1c(OCC(F)(F)F)ccnc1C[S@@+]([O-])c1nc2ccccc2[nH]1 [R-lansoprazole, dexlansoprazole]  class 0
2  COCCCOc1ccnc(C[S@@+]([O-])c2nc3ccccc3[nH]2)c1C [R-rabeprazole, dexrabeprazole]  class 1
3  Cc1c(OCC(F)(F)F)ccnc1C[S@+]([O-])c1nc2ccccc2[nH]1 [S-lansoprazole]  class 1
4  COCCCOc1ccnc(C[S@+]([O-])c2nc3ccccc3[nH]2)c1C [S-rabeprazole]  class 1

Task: Identify whether the compound COc1ccc2nc([S@@+]([O-])Cc3ncc(C)c(OC)c3C)[nH]c2c1 [S-omeprazole, esomeprazole] records Kd below 50 µM.
Output: class 0

----------
Test system: α1-acid glycoprotein (AGP)
assay.overview: Bound percentage by HPLC on AGP column, extrapolation to zero organic modifier
Format: in vitro ADME, human
protocol.conditions: extrapolation to zero percent MeOH
quantity.measured: Bound percentage (b%)
Give the quantity in %, number only.

Known Bound percentage (b%) results, listed for orientation:
>>> print(df.to_string())
                                   compound                 system_name  value_observed
0  Cc1c(OCC(F)(F)F)ccnc1C[S@+]([O-])c1nc2ccccc2[nH]1 [S-lansoprazole]  α1-acid glycoprotein (AGP)           95.04
1  COCCCOc1ccnc(C[S@+]([O-])c2nc3ccccc3[nH]2)c1C [S-rabeprazole]  α1-acid glycoprotein (AGP)           96.39
2  COCCCOc1ccnc(C[S@@+]([O-])c2nc3ccccc3[nH]2)c1C [R-rabeprazole, dexrabeprazole]  α1-acid glycoprotein (AGP)           95.07

Now examine the next entry.
Task: What value of measured Bound percentage (b%) is listed for Cc1c(OCC(F)(F)F)ccnc1C[S@@+]([O-])c1nc2ccccc2[nH]1 [R-lansoprazole, dexlansoprazole] ?
Output: 96.16

----------
system.name: human serum albumin (HSA) (Homo sapiens)
assay.overview: Bound percentage by HPLC on HSA column, extrapolation to zero organic modifier
Format: in vitro ADME
protocol.conditions: extrapolation to zero percent MeOH
Description: Chromatographic columns containing proteins can be used to determine the percentage of drug binding. A plot of the natural logarithm of the retention factors against the proportion of organic modifiers was created. […] The intercept of these linear equations can be used to calculate the bound percentage according to Equation (4) (see in Section 3.2). Chromatographic measurements were carried out on two separate HPLC systems. […] Chromatographic parameters were calculated based on the following equations. […]
Here the recorded Bound percentage (b%) is given for each entry.
State just the number; it will be interpreted in %.

Illustrative cases are given below, each with its answer.
In [3]: df
Out[3]:
                                   molecule                               system_name      quantity_measured  value_observed
0  Cc1c(OCC(F)(F)F)ccnc1C[S@@+]([O-])c1nc2ccccc2[nH]1 [R-lansoprazole, dexlansoprazole]  human serum albumin (HSA) (Homo sapiens)  Bound percentage (b%)           92.89
1  COc1ccc2[nH]c([S@+]([O-])Cc3ncc(C)c(OC)c3C)nc2c1 [R-omeprazole]  human serum albumin (HSA) (Homo sapiens)  Bound percentage (b%)           91.03
2  Cc1c(OCC(F)(F)F)ccnc1C[S@+]([O-])c1nc2ccccc2[nH]1 [S-lansoprazole]  human serum albumin (HSA) (Homo sapiens)  Bound percentage (b%)           95.42
3  COc1ccc2nc([S@@+]([O-])Cc3ncc(C)c(OC)c3C)[nH]c2c1 [S-omeprazole, esomeprazole]  human serum albumin (HSA) (Homo sapiens)  Bound percentage (b%)           91.03
4  COCCCOc1ccnc(C[S@@+]([O-])c2nc3ccccc3[nH]2)c1C [R-rabeprazole, dexrabeprazole]  human serum albumin (HSA) (Homo sapiens)  Bound percentage (b%)           89.42

Kindly consider the entry below.
Task: // Bound percentage (b%) lookup, key: COCCCOc1ccnc(C[S@+]([O-])c2nc3ccccc3[nH]2)c1C [S-rabeprazole]
Output: 89.42

----------
# reported k retention factor; entries follow
system.name: human serum albumin (HSA) (Homo sapiens, UniProt P02768)
Sequence (P02768 25-609): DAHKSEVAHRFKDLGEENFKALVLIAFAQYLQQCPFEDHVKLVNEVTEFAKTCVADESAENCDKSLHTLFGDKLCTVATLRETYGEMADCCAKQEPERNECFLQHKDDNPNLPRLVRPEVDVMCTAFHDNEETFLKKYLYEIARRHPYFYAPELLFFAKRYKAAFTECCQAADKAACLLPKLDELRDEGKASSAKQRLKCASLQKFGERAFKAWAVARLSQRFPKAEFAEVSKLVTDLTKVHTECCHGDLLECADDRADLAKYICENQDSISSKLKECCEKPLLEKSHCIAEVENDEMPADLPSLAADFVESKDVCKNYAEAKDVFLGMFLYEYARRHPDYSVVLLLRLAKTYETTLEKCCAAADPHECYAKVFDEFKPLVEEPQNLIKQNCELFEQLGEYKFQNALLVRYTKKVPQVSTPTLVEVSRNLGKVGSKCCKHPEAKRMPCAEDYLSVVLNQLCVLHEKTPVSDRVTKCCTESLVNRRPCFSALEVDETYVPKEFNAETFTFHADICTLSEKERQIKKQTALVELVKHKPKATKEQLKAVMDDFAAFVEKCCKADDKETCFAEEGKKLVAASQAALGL
assay.overview: Displacement chromatography on HSA column with warfarin and ibuprofen as competitors
Assay type: binding
protocol.conditions: warfarin 0.05 mM, IPA:10 mM pH 7 phosphate buffer 1:99, 25 °C
Description: For identification of the binding site of HSA, a displacement chromatography and fluorescence displacement study were performed. […] In the case of the fluorescence displacement study, the fluorescence quenching data of the PPI-HSA system in the presence of warfarin and ibuprofen were investigated. […]

Example cases with answers are listed next.
                                   compound  value_observed
0  COCCCOc1ccnc(C[S+]([O-])c2nc3ccccc3[nH]2)c1C (stereo not shown)            4.98
1  Cc1c(OCC(F)(F)F)ccnc1C[S@@+]([O-])c1nc2ccccc2[nH]1           12.07
2  Cc1c(OCC(F)(F)F)ccnc1C[S@+]([O-])c1nc2ccccc2[nH]1            8.13

Now take the following compound into account.
Task: May I ask what k retention factor has been recorded for COc1ccc2[nH]c([S+]([O-])Cc3ncc(C)c(OC)c3C)nc2c1 (stereo not shown) ?
Output: 7.71

----------
system.name: human serum albumin (HSA) (Homo sapiens)
assay.overview: Displacement chromatography on HSA column with warfarin and ibuprofen as competitors
Type: binding
protocol.conditions: ibuprofen 0.05 mM, IPA:10 mM pH 7 phosphate buffer 1:99, 25 °C
Method: For identification of the binding site of HSA, a displacement chromatography and fluorescence displacement study were performed. […] In the case of the fluorescence displacement study, the fluorescence quenching data of the PPI-HSA system in the presence of warfarin and ibuprofen were investigated. […]
quantity.measured: k retention factor

>>> print(df.to_string())
                                   compound   quantity_measured  value_observed
0  Cc1c(OCC(F)(F)F)ccnc1C[S@@+]([O-])c1nc2ccccc2[nH]1  k retention factor           10.41
1  COCCCOc1ccnc(C[S+]([O-])c2nc3ccccc3[nH]2)c1C (stereo not shown)  k retention factor            5.87
2  COc1ccc2[nH]c([S+]([O-])Cc3ncc(C)c(OC)c3C)nc2c1 (stereo not shown)  k retention factor            6.31

Now turn to the next compound.
Task: Which k retention factor is listed for "Cc1c(OCC(F)(F)F)ccnc1C[S@+]([O-])c1nc2ccccc2[nH]1" ?
Output: 8.51

----------
Tested on: α1-acid glycoprotein (AGP)
assay.overview: Bound percentage by HPLC on AGP column, extrapolation to zero organic modifier
Format: in vitro ADME, human
protocol.conditions: extrapolation to zero percent IPA
quantity.measured: Bound percentage (b%)
Number only, in %; omit the unit.

In the examples that follow, each entry is paired with its recorded Bound percentage (b%).
In [3]: df
Out[3]:
                         structure_notation  value_observed
0  COCCCOc1ccnc(C[S@@+]([O-])c2nc3ccccc3[nH]2)c1C           98.60
1  Cc1c(OCC(F)(F)F)ccnc1C[S@+]([O-])c1nc2ccccc2[nH]1           98.62
2  COCCCOc1ccnc(C[S@+]([O-])c2nc3ccccc3[nH]2)c1C           99.39

Task: # input molecule: "Cc1c(OCC(F)(F)F)ccnc1C[S@@+]([O-])c1nc2ccccc2[nH]1" ; wanted: its Bound percentage (b%)
Output: 98.93

----------
k retention factor overview
system.name: human serum albumin (HSA) (Homo sapiens, UniProt P02768)
assay.overview: Displacement chromatography on HSA column with warfarin and ibuprofen as competitors
Assay type: binding
protocol.conditions: warfarin 0 mM, IPA:10 mM pH 7 phosphate buffer 1:99, 25 °C

In [3]: df
Out[3]:
                                   compound  value_observed
0  COCCCOc1ccnc(C[S+]([O-])c2nc3ccccc3[nH]2)c1C (stereo not shown) [Rabeprazole, rabeprazole]            7.21
1  Cc1c(OCC(F)(F)F)ccnc1C[S@@+]([O-])c1nc2ccccc2[nH]1 [R-lansoprazole, dexlansoprazole]           18.27
2  Cc1c(OCC(F)(F)F)ccnc1C[S@+]([O-])c1nc2ccccc2[nH]1 [S-lansoprazole]           11.17

For the next question, use this compound.
Task: # query: k retention factor of entry COc1ccc2[nH]c([S+]([O-])Cc3ncc(C)c(OC)c3C)nc2c1 (stereo not shown) [Omeprazole, omeprazole]
Output: 9.53
